test system: HeLa cells; assay: Confocal laser scanning microscopy and degradation study with PA library and HeLa cells; type: cell-based; conditions: HeLa cells; 3 d relative to 30 min
Where a SMILES comes first, the peptide text is derived from it. [ ]: non-standard residue; d: D form. The star is where a group is joined. X1 = CC/C=C\C/C=C\C/C=C\C/C=C\C/C=C\CCCC(=O)*; Fmoc = O=C(OCC1c2ccccc2-c2ccccc21)*; Palmitoyl = CCCCCCCCCCCCCCCC(=O)*; Nonanoyl = CCCCCCCCC(=O)*
Label Met when Degradability / % (rel. to initial particles > 10 µm^2) >= 30%; otherwise Not met.

Here's what some known entries look like.
Q. Quick check, Degradability / % (rel. to initial particles > 10 µm^2) >= 30%? CC/C=C\C/C=C\C/C=C\C/C=C\C/C=C\CCCC(=O)N[C@H](C(=O)N[C@H](C(=O)N[C@H](C(=O)N[C@@H](C)C(=O)N[C@@H](C)C(=O)N[C@@H](C)C(=O)N[C@@H](CCCCN)C(=O)N[C@@H](CCCCN)C(=O)N[C@@H](CCCCN)C(N)=O)C(C)C)C(C)C)C(C)C [Pat10] (X1-VVVAAAKKK-NH2)
A. Met

Q. Request: CCCCCCCCCCCCCCCC(=O)N[C@@H](C(=O)N[C@@H](C(=O)N[C@@H](C(=O)N[C@H](C)C(=O)N[C@H](C)C(=O)N[C@H](C)C(=O)N[C@H](CCCCN)C(=O)N[C@H](CCCCN)C(=O)N[C@H](CCCCN)C(N)=O)C(C)C)C(C)C)C(C)C [Pat14, C16-vvvaaakkk-NH2] (Palmitoyl-[dV][dV][dV][dA][dA][dA][dK][dK][dK]-NH2)
A. Not met

Q. Request: CCCCCCCCCCCCCCCC(=O)N[C@@H](CCCCN)C(=O)N[C@H](C(=O)N[C@H](C(=O)N[C@@H](CO)C(=O)N[C@@H](Cc1ccccc1)C(=O)N[C@@H](CCCCN)C(N)=O)[C@@H](C)CC)[C@@H](C)CC [Pat32, C16-KIISFK-NH2] (Palmitoyl-KIISFK-NH2)
A. Not met

Q. Request: CCCCCCCCCCCCCCCC(=O)N[C@@H](CC(N)=O)C(=O)N[C@@H](Cc1ccccc1)C(=O)N[C@@H](Cc1ccc(O)cc1)C(=O)N[C@@H](CC(C)C)C(=O)N[C@@H](CCC(N)=O)C(=O)N[C@H](C(=O)N[C@@H](CC(N)=O)C(=O)N[C@@H](CCCCN)C(=O)N[C@H](C(=O)N[C@@H](CC(N)=O)C(=O)N[C@@H](CCCCN)C(N)=O)[C@@H](C)CC)C(C)C [Pat27] (Palmitoyl-NFYLQVNKINK-NH2)
A. Not met

Q. Request: CCCCCCCCC(=O)N[C@H](C(=O)N[C@H](C(=O)N[C@H](C(=O)N[C@@H](C)C(=O)N[C@@H](C)C(=O)N[C@@H](C)C(=O)N[C@@H](CCCCN)C(=O)N[C@@H](CCCCN)C(=O)N[C@@H](CCCCN)C(N)=O)C(C)C)C(C)C)C(C)C [Pat8] (Nonanoyl-VVVAAAKKK-NH2)
A. Met

# input for lookup
Q. Quick check, Degradability / % (rel. to initial particles > 10 µm^2) >= 30%? CC(C)[C@H](NC(=O)OCC1c2ccccc2-c2ccccc21)C(=O)N[C@H](C(=O)N[C@H](C(=O)N[C@@H](C)C(=O)N[C@@H](C)C(=O)N[C@@H](C)C(=O)N[C@@H](CCCCN)C(=O)N[C@@H](CCCCN)C(=O)N[C@@H](CCCCN)C(N)=O)C(C)C)C(C)C [Pat12] (Fmoc-VVVAAAKKK-NH2)
A. Not met

The reported measurements were obtained from patent EP4458977A1.
